Tested on: THRa:RXRa (NR concentration 90 nM, RXRa partner concentration 90 nM)
Assay: PBM binding z-score (relative to random genomic background probes); higher = stronger binding; sequences stand for … in GC…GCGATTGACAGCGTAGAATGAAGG
We use 3 as the dividing line for PBM binding z-score: on or above the line is Satisfied, below is Not satisfied.

CCTTACGGGTCACTACAGGTTATAGCATCGGAGT; Satisfied
GCTATTAGTTGATAGGGCAACCGAATGATTCTCG; Not satisfied
AGAATGAGGTTACCAAAGATCTGGGAAACGCTTG; Not satisfied
TCATACAGGTAAATGCTAGGTGAAAGTCCGATCT; Not satisfied
GCATATAGGTAATACAAGGAGAAAGTCCGATTGT; Not satisfied
ATCTCTAGGTAAAGTCCAGTGAAAGATCGATAGA; Not satisfied
CCGACTGGGGCTGAAAGGTTACCATACCATCCGG; Not satisfied
CGTCCAAGGTCAATGTCAGTGAAAGAGACTCGAA; Satisfied
CGTCCAAGGTCAAGGTCAGTGAAAGAGACTCGAA; Satisfied
ATATGTAGGTAATCGGGTCATTCAGTTTGCGCAT; Satisfied

Input line: Threshold query (PBM binding z-score >= 3) on TAGCTTAGGTCATGGGCCAGTATACCACGCGAAC
Output line: Satisfied

Input line: Determine whether measured PBM binding z-score meets or exceeds 3 for ATATGTAGGTAAGCTGGGGTCATTCAGACTAGGC
Output line: Satisfied

Input line: Check if PBM binding z-score >= 3 (inclusive). Item: CGAACTAGGTCATTGAAAGGACAGTGAATAGTAA
Output line: Satisfied
